tested on: E28 (patient-derived glioblastoma stem cells of classical subtype); assay: phenotypic distance (Euclidean, principal components) from DMSO controls (arbitrary units); higher = stronger morphological change; conditions: 1000 nM; exposure time: 72 h;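 further: cell Painting imaging in 384-well plates, CellProfiler features reduced to at least 20 principal components, Euclidean distance versus same-plate DMSO vehicle wells (0.1% v/v), median over six images per well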
Structures can show the parent of a compound that is named as a salt.
Below is a list of entries, each paired with its recorded phenotypic distance value.

molecule	testTarget	phenotypic distance
O=C1CC[C@@H](C(=O)N2CSC[C@H]2C(=O)O)N1 [Pidotimod]	E28	0.647
Nc1nc2n[nH]nc2c(=O)[nH]1 [Azaguanine-8]	E28	1.81
CC(C)(Oc1ccc(C2CC2(Cl)Cl)cc1)C(=O)O (configuration not stated) [Ciprofibrate]	E28	0.776
CCCCCC[C@H]1C(=O)O[C@H](C)[C@H](NC(=O)c2cccc(NC=O)c2O)C(=O)O[C@@H](C)[C@@H]1OC(=O)CC(C)C [Antimycin A]	E28	1.86
Cc1ccc2c(c1)C1(CCN(CCc3nc(-c4ccccc4)oc3C)CC1)OC(=O)N2	E28	0.667
CCC1=C[C@@H]2CN(C1)Cc1c([nH]c3ccccc13)[C@@](C(=O)OC)(c1cc3c(cc1OC)N(C)[C@H]1[C@@](O)(C(=O)OC)[C@H](OC(C)=O)[C@]4(CC)C=CCN5CC[C@]31[C@@H]54)C2 [Vinorelbine Tartrate]	E28	2.7
N=C(NCCCCCCNC(=N)NC(=N)Nc1ccc(Cl)cc1)NC(=N)Nc1ccc(Cl)cc1 [Chlorhexidine]	E28	1.41

The measured values listed here are drawn from the supplement of paper PMC13207355.
